Target: Carbonic anhydrase 12 (Homo sapiens, UniProt O43570)
Sequence (O43570 whole entry): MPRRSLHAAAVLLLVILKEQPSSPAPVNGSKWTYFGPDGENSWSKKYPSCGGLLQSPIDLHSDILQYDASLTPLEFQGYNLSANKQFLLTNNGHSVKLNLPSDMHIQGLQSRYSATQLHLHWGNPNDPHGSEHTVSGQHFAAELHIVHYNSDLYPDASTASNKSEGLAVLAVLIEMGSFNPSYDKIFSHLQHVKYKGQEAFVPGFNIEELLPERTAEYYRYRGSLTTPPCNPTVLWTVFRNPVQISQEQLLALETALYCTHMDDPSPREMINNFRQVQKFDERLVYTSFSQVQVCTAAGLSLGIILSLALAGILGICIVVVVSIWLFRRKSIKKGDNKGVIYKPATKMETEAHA
Experiment: Inhibition of recombinant human carbonic anhydrase 12 preincubated with enzyme for 15 mins by phenol red dye based stopped flow CO2 hydration assay
pKi: −log10 of the molar value.
MEASURE_NAME: pKi

Measured pKi, `O=C(Nc1ccc(C(=O)O)cc1)Nc1cc2cc(Br)ccc2o1` : 5.80

Entry under test: `O=C(Nc1cccc(C(=O)O)c1)Nc1cc2cc(Br)ccc2o1` . Its pKi was 5.64

# pKi of `O=C(O)CNC(=O)c1ccc(NC(=O)Nc2cc3cc(Br)ccc3o2)cc1` = 5.00

P: Cc1c(NC(=O)Nc2cccc(C(=O)O)c2)oc2ccccc12
Q: O=C(Nc1cc2cc(Br)ccc2o1)Nc1ccccc1C(=O)O
Task item: // compare measured pKi between P and Q ; output the lower one When you have decided, please share the label of that item.
Reply: Q
(Q: 5.10, P: 5.66)
